# assayTarget: c-Src SH2;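 note: peptide library displayed on the E. coli surface as eCPX fusions, selected cells deep-sequenced, score is each peptide's frequency after selection divided by its frequency in the input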
# experimentNotes: SH2 binding enrichment of the phosphorylated peptide, bacterial display (enrichment ratio); higher = better substrate or ligand; peptides without Tyr show the background

sequenceEntry: TTGGFYSFGGG [KRT24_Y120_A115T_YF]
SH2 binding enrichment: 0.418
--
sequenceEntry: LVKDGYQMAQP [CSF1R_Y873]
SH2 binding enrichment: 0.634
--
sequenceEntry: RLGNQHVNVMN [SLC3A1_Y461_Y461H]
SH2 binding enrichment: 0.429
--
sequenceEntry: KFLVGYEMLAQ [GALT_Y339_M336L]
SH2 binding enrichment: 2.72
--
sequenceEntry: KDHPDYEFQPR [SOX9_Y172_K173E_YF]
SH2 binding enrichment: 0.568
--
sequenceEntry: TRDVNYGWTIR [MT-CYB_Y75_I78T]
SH2 binding enrichment: 0.515
--
sequenceEntry: IFCIQYNIRAF [MYH4_Y820]
SH2 binding enrichment: 0.685
--
sequenceEntry: SSLMKYQQNVS [EGFEM1P_Y160_P157L]
SH2 binding enrichment: 0.398
--
sequenceEntry: KLGDVYVNVAF [PGK1_Y161_D164V]
SH2 binding enrichment: 0.636
--
sequenceEntry: SSPVPYLSPET [TJP1_Y931]
SH2 binding enrichment: 0.507
--
sequenceEntry: VTQEQYELFCE [CBL_Y368_YF]
SH2 binding enrichment: 0.668
--
sequenceEntry: RLAKTYKTTLE [ALB_Y377_E378K]
SH2 binding enrichment: 0.672
--
sequenceEntry: FADIAYSYRHG [PAH_Y166_N167S]
SH2 binding enrichment: 0.496
--
sequenceEntry: NVADHYGVYKP [ATP6V0D2_Y271]
SH2 binding enrichment: 0.597
--
sequenceEntry: LGSNGYKKLLK [SEPSECS_Y334]
SH2 binding enrichment: 0.396
--
sequenceEntry: FIGVTYKNKED [PDGFRA_Y993_E996K_YF]
SH2 binding enrichment: 0.566
--
sequenceEntry: HQNGMYGLHQD [SGSH_Y89]
SH2 binding enrichment: 0.603
--
sequenceEntry: HNELFYEEAEH [VANGL1_Y345_YF]
SH2 binding enrichment: 0.645
--
sequenceEntry: FLAVGYHKTHI [IDS_Y225_P228T]
SH2 binding enrichment: 1.03
--
sequenceEntry: RRRLIYRCQVG [NR2E3_Y81]
SH2 binding enrichment: 0.286
--
sequenceEntry: KACNPYKPPGP
SH2 binding enrichment: 0.76
--
sequenceEntry: EMFNPYYGLFE [NEDD4L_Y679]
SH2 binding enrichment: 1.06
--
sequenceEntry: FPDFVYKRIKA [DPYSL2_Y479]
SH2 binding enrichment: 0.41
